# method summary: in vitro
# Type: in vitro ADME
# condition context: human; Caco-2 monolayer; ER>2 indicates potential efflux transporter substrate; read-out: ER (efflux ratio)
API: label(entry) gives MET if the entry's efflux ratio at 90 min is strictly smaller than 3; on equality or larger values it gives NOT MET.

compound	class assignment
CC(C)[C@H](N)C(=O)O[C@H]1[C@@H](OC(=O)[C@@H](N)C(C)C)[C@](C#N)(c2ccc3c(N)ncnn23)O[C@@H]1COC(=O)Cc1ccccc1 [Compound 351]	NOT MET
CC(C)[C@H](N)C(=O)OC[C@H]1O[C@@](C#N)(c2ccc3c(N)ncnn23)[C@H](O)[C@@H]1OC(=O)Cc1ccccc1 [Compound 36]	NOT MET
CC(C)[C@H](N)C(=O)Nc1ncnn2c([C@]3(C#N)O[C@H](CO)[C@@H](OC(=O)Cc4ccccc4)[C@H]3O)ccc12 [Compound 144]	NOT MET
CCCCC(=O)Nc1ncnn2c([C@]3(C#N)O[C@H](CO)[C@@H](OC(=O)Cc4ccccc4)[C@H]3O)ccc12 [Compound 340]	MET
CC(C)CC(=O)O[C@H]1[C@@H](O)[C@](C#N)(c2ccc3c(N)ncnn23)O[C@@H]1COC(=O)Cc1ccccc1 [Compound 41]	MET

====

# method summary: in vitro
# Format: in vitro ADME
# condition context: human, Caco-2
Rule: Papp B→A at 90 min of 0.6 ×10⁻⁶ cm/s or more gives 1; anything lower gives -1.

smiles str	class assignment
CC(C)C(=O)OC[C@H]1O[C@@](C#N)(c2ccc3c(N)ncnn23)[C@H](O)[C@@H]1OC(=O)CC1CCCCC1	1
CCC(=O)O[C@H]1[C@@H](O)[C@](C#N)(c2ccc3c(N)ncnn23)O[C@@H]1COC(=O)CC(C)C	1
CCC(=O)OC[C@H]1O[C@@](C#N)(c2ccc3c(N)ncnn23)[C@H](O)[C@@H]1OC(=O)[C@@H](N)C(C)C	-1
CCCCC(=O)Nc1ncnn2c([C@]3(C#N)O[C@H](CO)[C@@H](O)[C@H]3O)ccc12	-1
CC(C)(C)C(=O)OCO[C@H]1[C@@H](O)[C@](C#N)(c2ccc3c(N)ncnn23)O[C@@H]1COC(=O)CC1CCCCC1	1
CCC(=O)OC[C@H]1O[C@@H](n2cnc3c(NC)nc(N)nc32)[C@](C)(F)[C@@H]1OC(C)=O	1

====

# method summary: in vitro
# Format: in vitro ADME
# condition context: human; Caco-2 monolayer; ER>2 indicates potential efflux transporter substrate; read-out: ER (efflux ratio)

smiles str	efflux ratio at 90 min
CCCCC(=O)Nc1ncnn2c([C@]3(C#N)O[C@H](COC(=O)CC)[C@@H](O)[C@H]3O)ccc12	5.6
CCC(=O)OC[C@H]1O[C@@](C#N)(c2ccc3c(N)ncnn23)[C@H](O)[C@@H]1OC(=O)Cc1ccccc1	2.8
CNc1nc(N)nc2c1ncn2[C@@H]1O[C@H](COC(=O)C(C)C)[C@@H](OC(=O)Cc2ccccc2)[C@@]1(C)F	0.8
N#C[C@@]1(c2ccc3c(NC(=O)c4ccccc4)ncnn23)O[C@H](CO)[C@@H](OC(=O)Cc2ccccc2)[C@H]1O	0.18
CC(=O)OC[C@H]1O[C@@](C#N)(c2ccc3c(N)ncnn23)[C@H](O)[C@@H]1OC(=O)Cc1ccccc1	0.65
